Tested on: XF 498 CNS
Assay: NCI tumour cell line growth inhibition, 48 h
Metric: TGI (µM)
One number for each entry, in µM.

Some compounds with known TGI results, for comparison:
Compound | Measured on | TGI (µM)
O=S(=O)(O)C1=C2Sc3ccccc3N=C2c2ccccc2C1 | XF 498 CNS | 31.8
COc1ccc(N2C(=O)/C(=C/c3ccc(N(CCC#N)CCC#N)cc3C)N=C2c2cc([N+](=O)[O-])ccc2Cl)cc1 | XF 498 CNS | 8.12

Could you report TGI for every entry in the following list?
1. O=C(CC1(O)C(=O)Nc2c(Cl)ccc(Cl)c21)c1ccc(F)cc1 (stereo not drawn)
2. O=C(N/C(=C\c1cccc([N+](=O)[O-])c1)c1nc2ccc([N+](=O)[O-])cc2[nH]1)c1ccccc1

1: 77.1; 2: 59.8

* * *

System: UACC-62 melanoma
Experiment: NCI tumour cell line growth inhibition, 48 h
Task for the reader: assign each of the following molecules its reported TGI.

Molecule | Measured on | Metric | Experimental value
CC1CN1C(=O)NCCCCCCNC(=O)N1CC1C (configuration not stated) | UACC-62 melanoma | TGI | > 100 µM
COc1ccc(-c2nc(-c3nc4ccc(Cl)cc4[nH]3)c3ccccn23)cc1 | UACC-62 melanoma | TGI | 20.9 µM
O=[N+]([O-])c1ccc2c(c1)S(=O)(=O)N1Cc3ccccc3CCN21 | UACC-62 melanoma | TGI | > 100 µM
COc1ccc(C[C@@H](CO)NC2=C(C#N)CCC2)cc1 | UACC-62 melanoma | TGI | > 100 µM
N#CC1C(=O)N(c2ccccc2)NC12OC(=O)c1ccncc12 (configuration not stated) | UACC-62 melanoma | TGI | > 20 µM
O=S(=O)(SC1=NCCN1)c1ccc2ccccc2c1 | UACC-62 melanoma | TGI | > 100 µM
COc1ccc2c(c1)-c1nc(=S)n(CCCN(C)C)c3ccc([N+](=O)[O-])c(c13)N2 | UACC-62 melanoma | TGI | 25.9 µM
COc1nc(N=P(c2ccccc2)(c2ccccc2)c2ccccc2)cc(=O)[nH]1 | UACC-62 melanoma | TGI | > 100 µM
Cc1cc(Cl)cc2c1NC(=O)C2(O)CC(=O)c1ccco1 (configuration not stated) | UACC-62 melanoma | TGI | 67.5 µM
CS(=O)(=O)c1ccc(-n2nc(C(F)(F)F)cc2OC2CCCC2)cc1 | UACC-62 melanoma | TGI | > 100 µM

Could you report TGI for every entry in the following list?
1. Nc1c(-c2ccc(Cl)cc2)[n+]([O-])c2ccccc2[n+]1[O-]
2. CC/C=C\C[C@@H](O)C/C=C1/C(=O)C=C[C@H]1C/C=C\CCCC(=O)OC

> 100 µM
8.6 µM

* * *

System: SF-268 CNS
Assay: NCI tumour cell line growth inhibition, 48 h; in the data active = GI50 below about 0.43 µM; inactive = the rest
Outcome (select one): active, inactive

Compound | Discrete label
Cc1cc(-c2cnn3c(NCC4CC(C)(O)C4)cc(Oc4cccnc4)nc23)ccc1C(=O)NC1CC1 (configuration not stated) | inactive

Record lookup: outcome of this test for COC(=O)Nc1nc2ccc(Oc3ccc(NC(=O)Nc4cc(C(F)(F)F)ccc4F)cc3)cc2s1 ?
inactive

Record lookup: outcome of this test for COc1ccc(-c2onc(N)c2-c2cc(OC)c3c(c2)OCO3)cc1 ?
inactive

Record lookup: outcome of this test for COc1cc2cc(Oc3ccc(NC(=O)Nc4ccc(Cl)c(C(F)(F)F)c4)cc3)c(C)nc2cc1OCCN1CCOCC1 ?
inactive

Record lookup: outcome of this test for Cc1ccc(C(=O)N(CCCN)C(c2oc3cc(Cl)ccc3c(=O)c2Cc2ccccc2)C(C)C)cc1 (configuration not stated) ?
active

Record lookup: outcome of this test for COc1ccc(-c2nc(-c3nc4ccc(Cl)cc4[nH]3)c3ccccn23)cc1 ?
inactive

Record lookup: outcome of this test for CC1(C)OC2=C(CC1Br)C(=O)C(=O)c1ccccc12 (configuration not stated) ?
inactive

Record lookup: outcome of this test for COc1cc2ncn(-c3cc(OCc4cccs4)c(C(N)=O)s3)c2cc1OC ?
inactive

Record lookup: outcome of this test for Cc1cc2c(cc1Cl)SC1=NN(C)S(=O)N1S2(=O)=O (configuration not stated) ?
inactive

Record lookup: outcome of this test for NC(=O)NS(=O)(=O)c1ccc(N2N=C(C(F)(F)F)CC2c2cc(C(F)(F)F)cc(C(F)(F)F)c2)cc1 (configuration not stated) ?
inactive

Record lookup: outcome of this test for N#CC(C#N)=C1Nc2ccccc2S1 ?
inactive

Record lookup: outcome of this test for C#CCNC(=O)c1cccc2c1cc(C)n2-c1nc2c(c(NCc3ccccc3)n1)CCCC2 ?
active

* * *

Test system: 786-0 renal
Experiment: NCI tumour cell line growth inhibition, 48 h
Metric: log10(TGI) (log10 of the value in µM)
Hello, just confirming the data are log10 of TGI with units of µM.

Some compounds with known log10(TGI) results, for comparison:
Compound | Metric | Experimental value
O=C(CCc1nnc2sc(-c3ccc(Cl)cc3Cl)nn12)c1nc2ccccc2[nH]1 | log10(TGI) | 0.46
N#C/C(=C\c1ccc2ccccc2c1)c1ccccc1 | log10(TGI) | 1.62
Oc1c2cc(Cl)cc1COCc1cc(Cl)cc(c1O)COCc1cc(Cl)cc(c1O)COC2 | log10(TGI) | 1.58

Could you report log10(TGI) for every entry in the following list?
1. O=S(=O)(NC1=NCCN1C(=S)SN1CCn2c1nsc2=S)c1cccc(Cl)c1
2. CC1(C)OC2=C(CC1Br)C(=O)C(=O)c1ccccc12 (stereo not given)

1.74
0.54

Could you report log10(TGI) for every entry in the following list?
1. CN(C)CCNC(=O)c1cccc2ccc(-c3ccncc3)nc12
2. O=C(CCN(C(=O)O)S(=O)(=O)c1ccc(NC(=O)c2ccccc2)cc1)NC1CCCCC1
3. Cc1ccc(C(=O)N(CCCN)C(c2oc3cc(Cl)ccc3c(=O)c2Cc2ccccc2)C(C)C)cc1 (stereo not given)
4. O=c1[nH]nc(-c2ccccc2)n1/N=C/c1ccc([N+](=O)[O-])cc1

1: 1.53; 2: 1.50; 3: 0.32; 4: 1.36

* * *

Task for the reader: assign each of the following molecules its reported TGI.
System: HT29 colon
Experiment: NCI tumour cell line growth inhibition, 48 h

Some molecules with known TGI results, for comparison:
Molecule | TGI
Cc1nc(-c2cc3c(ccc4ccccc43)oc2=O)cs1 | > 100 µM
O=C1C(Cl)=C(NCCN2CCOCC2)C(=O)c2ncccc21 | 6.74 µM
COC1(C)CP(=O)(OC(C)C)CC(C)=C1Cl (centres undefined) | 26.5 µM

Could you report TGI for every entry in the following list?
1. NC(=O)COC(=O)c1c(Cl)nc2sccn12
2. O=C(CCc1nnc2sc(-c3ccc(Cl)cc3Cl)nn12)c1nc2ccccc2[nH]1
3. CCOC(=O)C1(Cc2ccccc2)C=CN(C(=O)c2ccccc2)C=C1
4. O=C1Nc2ccccc2C1(c1ccc(O)cc1)c1ccc(O)cc1

> 100 µM
2.01 µM
> 100 µM
> 90 µM

Could you report TGI for every entry in the following list?
1. O=C(O)c1ccccc1/C=N/NC1=NCCN1
2. CC(C)(C)C(=O)OCOP(=O)(OCOC(=O)C(C)(C)C)OCC1OC(n2ccc(=O)[nH]c2=O)C(N=[N+]=[N-])C1O (centres undefined)
3. Cc1c(C(=O)C/C(=N/NC(=O)C[N+](C)(C)C)C(=O)Nc2ccc(Cl)cc2)[n+](=O)c2ccccc2n1O
4. COc1ccc2c(c1)[n+](=O)c(C(=O)C/C(=N/OCCCc1ccccc1)C(=O)NC13CC4CC(CC(C4)C1)C3)c(C)n2[O-]
5. Nc1nc2c(nnn2C2CC(O)C(CO)O2)c(=O)[nH]1 (centres undefined)

["> 100 µM", "11.4 µM", "> 100 µM", "> 100 µM", "> 100 µM"]

Could you report TGI for every entry in the following list?
1. Clc1ccccc1-c1nc2ccc(C34CC5CC(CC(C5)C3)C4)cc2[nH]1
2. O=C(O)C(CS)Nc1c2ccccc2nc2ccccc12 (centres undefined)
3. O=C(Cn1c2c(c3ccccc31)CCCC2)N1CCCC1
4. CC(C)(C)OC(=O)CN1C(=O)CC1CC(=O)c1ccccc1 (centres undefined)
5. CCOC(=O)c1cc2c([nH]1)c(O)cc1c2ccn1Cc1ccccc1
6. O=C(O)CCNC1CCCCC1

1: 37.9 µM; 2: > 100 µM; 3: > 100 µM; 4: 37.4 µM; 5: 30.2 µM; 6: > 100 µM

Could you report TGI for every entry in the following list?
1. COC(=O)c1cc(C)ccc1C1CN=NC12Cc1ccc(C)cc1C2=O (centres undefined)
2. c1ccc2c(c1)CC1=C(O2)c2ccccc2OC1
3. CCOC(=O)NC(=O)c1cn(CCNCCO)c(=O)[nH]c1=O
4. CN(C)CCNC(=O)c1cccc2ccc(-c3ccncc3)nc12
5. CC(=O)OCC1OC(NC(=S)N/N=C2\CC(c3ccccc3)Oc3ccccc32)C(OC(C)=O)C(OC(C)=O)C1OC(C)=O (centres undefined)

["> 100 µM", "> 100 µM", "> 100 µM", "13.8 µM", "> 100 µM"]
